Data credit: patent US20220389009A1

Biological target: CDK2/CycA2 (Homo sapiens)
Test: CDK2 mobility shift assay (enzymatic activity of CDK2/CycA2)
Assay type: biochemical
Details: 1.25 nM CDK2/CycA2, 37 μM ATP, FL Peptide 18, 120 min at room temperature; read-out: CDK2 IC50
pIC50: −log10 of the molar value.
propertyName: pIC50

Examples with their reported pIC50 follow.
OCCN1CCC(C(O)c2ccc3cnc(Nc4ccc(-n5ccc(CO)n5)cc4F)cc3n2)CC1 (single isomer, unassigned) [Compound 255] = < 6.00
OC(c1ccc2cnc(Nc3ccc(-n4cccn4)cc3F)cc2n1)C1CCNCC1 (stereo not shown) = < 6.00
CN1CCC(C(C)(O)c2ccc3cnc(Nc4ccc(-c5cccc(=O)n5C)cc4F)cc3n2)CC1 (stereo not shown) = 7.00 to 8.00

Prompt line: Quick check: pIC50 of CN1CCC(C(C)(O)c2ccc3cnc(Nc4ccc(-c5cccc(C#N)c5)cc4F)cc3n2)CC1 (stereo not shown) [Compound 337] ?
Response line: < 6.00

---

Entries and their measured IC50 follow.
Target: CDK2/CycA2 (Homo sapiens)
Assay: CDK2 mobility shift assay (enzymatic activity of CDK2/CycA2)
Format: biochemical
Details: CDK2 IC50

CN1CCC(N(CC(=O)O)c2ccc3cnc(Nc4ccc(-n5ccc(CO)n5)cc4F)cc3n2)CC1 = 100 to 1000 nM

For the next question, use this compound.
Prompt line: Quick check: IC50 of O=C(O)CN(c1ccc2cnc(Nc3ccc(-n4ccc(CO)n4)cc3F)cc2n1)C1CCNCC1 ?
Response line: > 1000 nM

---

Target: CDK2/CycA2 (Homo sapiens)
Experiment: CDK2 mobility shift assay (enzymatic activity of CDK2/CycA2)
Assay type: biochemical
Conditions: 1.25 nM CDK2/CycA2, 37 μM ATP, FL Peptide 18, 120 min at room temperature; read-out: CDK2 IC50
propertyName: IC50

# example entries with known answers
COC(=O)CN(c1ccc2cnc(Nc3ccc(-n4ccc(CO)n4)cc3F)cc2n1)C1CCNCC1 = > 1000 nM
CN1CCC(C(O)(c2ccc3cnc(Nc4ccc(-n5cccn5)cc4F)cc3n2)C(F)(F)F)CC1 (single isomer, unassigned) [Compound 343] = > 1000 nM
CN1CCC(S(=O)(=O)c2ccc3cnc(Nc4cccc(CN5CCOCC5)c4)cc3n2)CC1 = 100 to 1000 nM

Now for a further compound.
Prompt line: Need IC50 of O=S(=O)(c1ccc2cnc(Nc3ccc(-n4cccn4)cc3F)cc2n1)C1CCN(CC2COC2)CC1 , thanks.
Response line: 100 to 1000 nM

---

Biological target: CDK5/p25 (Homo sapiens, UniProt Q00535)
Sequence (Q00535 whole entry): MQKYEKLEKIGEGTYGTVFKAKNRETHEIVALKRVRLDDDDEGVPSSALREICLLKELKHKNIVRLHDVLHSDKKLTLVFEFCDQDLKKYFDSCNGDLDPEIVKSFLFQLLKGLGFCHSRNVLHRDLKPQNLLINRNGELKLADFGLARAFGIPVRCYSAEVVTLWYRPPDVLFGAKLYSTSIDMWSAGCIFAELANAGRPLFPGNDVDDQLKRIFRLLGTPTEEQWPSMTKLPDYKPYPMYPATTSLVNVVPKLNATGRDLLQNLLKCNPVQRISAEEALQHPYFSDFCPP
Sequence (Q15078 99-307 partner limits assumed): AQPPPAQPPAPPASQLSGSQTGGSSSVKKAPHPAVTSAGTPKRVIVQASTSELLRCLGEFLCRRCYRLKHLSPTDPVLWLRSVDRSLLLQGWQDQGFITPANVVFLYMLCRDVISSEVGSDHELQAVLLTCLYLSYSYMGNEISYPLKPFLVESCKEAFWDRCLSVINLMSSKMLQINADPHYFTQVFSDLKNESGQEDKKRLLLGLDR
Test: CDK5 mobility shift assay (enzymatic activity of CDK5/p25)
Assay type: biochemical
Settings: 0.154 nM CDK5/p25, FL peptide 29, 60 min at room temperature; read-out: CDK5 IC50
propertyName: IC50

Some solved cases for reference:
CN1CCC(Sc2ccc3cnc(Nc4ccc(-n5ccc(CO)n5)cc4F)cc3n2)CC1 = < 10 nM
COc1cncc(Nc2cc3nc(S(=O)(=O)C4CCN(C)CC4)ccc3cn2)c1 = 10 to 100 nM

Prompt line: Need IC50 of CN1CCC(O)(C(O)c2ccc3cnc(Nc4ccc(-n5cccn5)cc4F)cc3n2)CC1 (centres unmarked) , thanks.
Response line: 100 to 1000 nM

Prompt line: Reported IC50, compound CN1CCC(C(C)(F)c2ccc3cnc(Nc4ccc(-n5cccn5)cc4F)cc3n2)CC1 (single isomer, unassigned) [Compound 363] : ____
Response line: 10 to 100 nM

Prompt line: # query: IC50 of entry CS(=O)(=O)N(c1ccc2cnc(Nc3ccc(-n4cccn4)cc3F)cc2n1)C1CCNCC1
Response line: > 1000 nM

Prompt line: IC50 lookup needed for CC(c1ccc2cnc(Nc3ccc(-c4cccnc4)cc3F)cc2n1)C1CCN(C)CC1 (centres unmarked) [Compound 314] , thanks.
Response line: 10 to 100 nM

Prompt line: Value lookup for IC50; key = CN(c1ccc2cnc(Nc3ccccc3F)cc2n1)C1CCNCC1
Response line: 100 to 1000 nM

Prompt line: Can you share its IC50? I mean this compound: COC(=O)c1ccn(-c2ccc(Nc3cc4nc(C(O)C5CCN(C)CC5)ccc4cn3)c(F)c2)n1 (centres unmarked) [Compound 344]
Response line: 100 to 1000 nM

---

Items are presented alongside their recorded IC50.
Target: CDK5/p25 (Homo sapiens, UniProt Q00535)
Assay: CDK5 mobility shift assay (enzymatic activity of CDK5/p25)
Assay type: biochemical
Details: 0.154 nM CDK5/p25, FL peptide 29, 60 min at room temperature; read-out: CDK5 IC50
Description: Compound potency was measured via a change in the enzymatic activity of CDK5/p25, and optionally of CDK2/CycA2. Enzymes, CDK5/p25 and CDK2/CycA2, were sourced from Carna Biosciences (Cat #04-106 and 04-103, respectively). Test compound stocks were diluted in 100% DMSO and serially diluted 3-fold in a 384-well plate using a TECAN EVO200 (TECAN). […] The CDK5/p25 reaction was incubated at room temperature for 60 min. […] Samples were analyzed using the EZ Reader (Perkin Elmer). […]

Examples with their reported IC50 follow.
O=C(O)[C@H]1CNCC[C@@H]1Nc1ccc2cnc(Nc3ccc(-n4ccc(CO)n4)cc3F)cc2n1 = 100 to 1000 nM
CN1CCC(S(=O)(=O)c2ccc3cnc(Nc4cccc(C5CC5)c4)cc3n2)CC1 = < 10 nM
CN1CCC(C(=O)c2ccc3cnc(Nc4ccc(-n5cccn5)cc4F)cc3n2)CC1 = < 10 nM

Below: the item to evaluate.
Prompt line: Checklist item: IC50 tested on CDK5/p25 (Homo sapiens, UniProt Q00535), entry CN1CCC(S(=O)(=O)c2ccc3cnc(Nc4cccc(N5CCNC5=O)c4)cc3n2)CC1 , value?
Response line: < 10 nM

---

Measured pIC50, listed per entry for reference.
Biological target: CDK2/CycA2 (Homo sapiens, UniProt P24941)
Test: CDK2 mobility shift assay (enzymatic activity of CDK2/CycA2)
Format: biochemical
Conditions: 1.25 nM CDK2/CycA2, 37 μM ATP, FL Peptide 18, 120 min at room temperature; read-out: CDK2 IC50
pIC50: −log10 of the molar value.

C=C(c1ccc2cnc(Nc3ccc(-n4ccc(CO)n4)cc3F)cc2n1)C1CCN(C)CC1 [Compound 168] = 6.00 to 7.00
OCc1ccn(-c2ccc(Nc3cc4nc(N(Cc5cn[nH]c5)C5CCNCC5)ccc4cn3)c(F)c2)n1 [Compound 287] = < 6.00
CN1CCC(S(=O)(=O)c2ccc3cnc(Nc4ccc(N5CCOCC5)cc4)cc3n2)CC1 [Compound 262] = 7.00 to 8.00
O=S(=O)(Cc1ccc2cnc(Nc3ccc(-n4ccc(CO)n4)cc3F)cc2n1)C1CCNCC1 [Compound 207] = < 6.00
Cc1cc(C(=O)NC(C)C)ccc1Nc1cc2nc(S(=O)(=O)C3CCN(C)CC3)ccc2cn1 [Compound 265] = < 6.00
NC1CCCN(C(=O)c2ccc3cnc(Nc4ccc(-n5cccn5)cc4F)cc3n2)C1 (stereo not shown) [Compound 242] = < 6.00
CN1CCC([C@@](C)(O)c2ccc3cnc(Nc4ccc(-c5cc[nH]n5)cc4F)cc3n2)CC1 [Compound 414] = 7.00 to 8.00
CN1CCC(S(=O)(=O)c2ccc3cnc(Nc4ccccc4F)cc3n2)CC1 [Compound 299] = 6.00 to 7.00

Prompt line: Please look up its pIC50: CC(c1ccc2cnc(Nc3ccc(-n4ccc(C(=O)O)n4)cc3F)cc2n1)C1CCN(C)CC1 (stereo not shown) [Compound 324]
Response line: < 6.00

Prompt line: Would you kindly share the measured pIC50 for COc1cc(-c2ccc(Nc3cc4nc(C(C)C5CCN(C)CC5)ccc4cn3)c(F)c2)ccn1 (stereo not shown) [Compound 339] ?
Response line: < 6.00

Prompt line: Consider the compound COc1ccc(-c2ccc(Nc3cc4nc(C(C)C5CCN(C)CC5)ccc4cn3)c(F)c2)cc1 (stereo not shown) [Compound 310] and give its measured pIC50.
Response line: < 6.00

Prompt line: Requested field: pIC50. Item: OCCN1CCC(Sc2ccc3cnc(Nc4ccc(-n5ccc(CO)n5)cc4F)cc3n2)CC1 [Compound 138]
Response line: 7.00 to 8.00

Prompt line: Look up pIC50 for this compound: CN1CCC(NS(=O)(=O)c2ccc3cnc(Nc4ccc(-n5ccc(CO)n5)cc4F)cc3n2)CC1 [Compound 203]
Response line: < 6.00

Prompt line: Looking for the measured pIC50 of CC(C)N1CCC(S(=O)(=O)c2ccc3cnc(Nc4ccc(-n5cccn5)cc4F)cc3n2)CC1 [Compound 380] , can you help?
Response line: 6.00 to 7.00

Prompt line: // lookup pIC50 for O=S(=O)(c1ccc2cnc(Nc3ccc(-c4cccnc4)cc3F)cc2n1)C1CCN(CC2COC2)CC1 [Compound 323]
Response line: 6.00 to 7.00

Prompt line: Which pIC50 is listed for CN1CCC(C(O)c2ccc3cnc(Nc4ccc(-n5cccn5)cc4F)cc3n2)CC1 (single isomer, unassigned) [Compound 176] ?
Response line: 6.00 to 7.00

Prompt line: Name the recorded pIC50 for CN1CCC(C(C)(F)c2ccc3cnc(Nc4ccc(-n5cccn5)cc4F)cc3n2)CC1 (single isomer, unassigned) [Compound 363] .
Response line: < 6.00

Prompt line: Need pIC50 of CN1CCC(C(C)(O)c2ccc3cnc(Nc4ccc(CN5CCOCC5)cc4F)cc3n2)CC1 (stereo not shown) [Compound 353] , thanks.
Response line: 7.00 to 8.00

Prompt line: # pIC50 lookup, item CN1CCC(C(O)c2ccc3cnc(Nc4ccc(-n5cccn5)cc4F)cc3n2)CC1 (single isomer, unassigned) [Compound 175]
Response line: 6.00 to 7.00

Prompt line: Entry under review: CN1CCC(C(C)(O)c2ccc3cnc(Nc4ccc(-c5ccc(C#N)cn5)cc4F)cc3n2)CC1 (stereo not shown) [Compound 356] . Reported pIC50?
Response line: 7.00 to 8.00
